Measured values drawn from patent US20220144812A1 for this set.

Target: EP300 (P300(1048-1664)) (Homo sapiens, UniProt Q09472)
Construct: P300(1048-1664)
Experiment: Biochemical assay for EP300, SAMDI
Details: EP300, SAMDI; read-out: EP300 Biochemistry IC50
pIC50: −log10 of the molar value.
Lab note: compare pIC50 against 8. Equal or greater, write Satisfied. Smaller, write Not satisfied.

Please review the entries below; each comes with its answer.
CCn1ncc(CN(C)C(=O)c2nc(-c3ccc(OCCCNC)c(C4CC4)c3)nc3ccc(Cl)cc23)c1C: Not satisfied
CCn1ncc(CN(C)C(=O)c2cc(-c3cc(C)nc(C)n3)nc3ccc(Cl)cc23)c1C: Not satisfied
CCn1ncc(CN(C)C(=O)c2nc(-c3ccc(NC4CCOCC4)c(OC)c3)nc3ccc(Cl)cc23)c1C: Not satisfied

In: Decide: pIC50 of `CCn1ncc(CN(C)C(=O)c2nc(-c3ccc(CN4CCNCC4)c(OC)c3)nc3ccc(Cl)cc23)c1C` >= 8?
Out: Not satisfied

In: I'd appreciate it if you could say whether `CCn1ncc(CN(C)C(=O)c2nc(-c3cc4c(N)nn(C)c4cc3C)nc3ccc(Cl)cc23)c1C` has pIC50 at least equal to 8.
Out: Not satisfied

###

Hi there, I'd appreciate the recorded IC50 for every entry that follows.
Molecular target: EP300 (P300(1048-1664)) (Homo sapiens)
Construct: P300(1048-1664)
Assay: Biochemical assay for EP300, SAMDI
Conditions: EP300, SAMDI; read-out: EP300 Biochemistry IC50
One number for each entry, in nM.

Worked examples, 2 compounds total:
CCn1ncc(CN(C)C(=O)c2nc(-c3ccc(OCCCN4CCCCC4)c(C)c3)nc3ccc(Cl)cc23)c1C: 88
CCn1ncc(CN(C)C(=O)c2nc(-c3cc(C(=O)NCCN4CCCC4)n(Cc4ccc(OC)cc4)n3)nc3ccc(Cl)cc23)c1C: 44000

Hi team, please reply with IC50 for each item in this list.
1. CCn1ncc(CN(C)C(=O)c2nc(-c3cc(C)nc(NCCNC)c3)nc3ccc(Cl)cc23)c1C
2. CCn1ncc(CN(C)C(=O)c2nc(-c3ccc(OCCN)c(C)c3)nc3ccc(Cl)cc23)c1C

Out:
26
180

###

Biological target: EP300 (P300(1048-1664)) (Homo sapiens, UniProt Q09472)
Construct: P300(1048-1664)
Sequence (Q09472 1048-1664): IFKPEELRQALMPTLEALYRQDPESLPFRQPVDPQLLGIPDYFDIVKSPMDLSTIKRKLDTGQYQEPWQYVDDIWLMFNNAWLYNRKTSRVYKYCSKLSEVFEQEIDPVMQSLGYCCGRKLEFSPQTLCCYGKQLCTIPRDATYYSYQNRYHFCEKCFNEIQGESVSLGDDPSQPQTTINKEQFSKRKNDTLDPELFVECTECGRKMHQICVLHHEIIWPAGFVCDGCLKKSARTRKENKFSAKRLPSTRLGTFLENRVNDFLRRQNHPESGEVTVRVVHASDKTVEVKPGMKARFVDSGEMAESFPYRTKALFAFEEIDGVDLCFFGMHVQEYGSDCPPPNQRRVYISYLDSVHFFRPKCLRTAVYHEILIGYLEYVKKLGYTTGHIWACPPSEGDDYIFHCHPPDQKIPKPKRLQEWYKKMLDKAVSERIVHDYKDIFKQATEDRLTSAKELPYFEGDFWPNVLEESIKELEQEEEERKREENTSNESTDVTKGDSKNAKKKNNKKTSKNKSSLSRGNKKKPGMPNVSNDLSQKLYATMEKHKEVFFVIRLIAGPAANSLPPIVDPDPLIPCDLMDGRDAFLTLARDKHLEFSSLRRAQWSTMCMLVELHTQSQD
Experiment: Biochemical assay for EP300, SAMDI
Details: EP300, SAMDI; read-out: EP300 Biochemistry IC50
Excerpt: The following example describes materials and methods relating to a biochemical assay for EP300. IC50 values (micromolar (μM)) are summarized in Table 1, Table 2, and Table 3 under the column labeled: “EP300 Biochemistry IC50 (micromolar).”
Threshold check on IC50: strictly below 800 nM is label 1; on or above 800 nM is label 0.

Some entries whose results are on file:
CCc1cc(CN(C)C(=O)c2cc(-c3ccc(NCCN(C)C)c(C)n3)nc3ccc(Cl)cc23)on1: label 1
CCn1ncc(CN(C)C(=O)c2nc(-c3cc(CNC)n(C)n3)nc3ccc(Cl)cc23)c1C: label 0
CCn1ncc(CN(C)C(=O)c2cc(-c3ccc(N(C)C)nn3)nc3ccc(Cl)cc23)c1C: label 0
CCn1ncc(CN(C)C(=O)c2nc(-c3cc(C(=O)NCCCN4CCCC4)n(Cc4ccc(OC)cc4)n3)nc3ccc(Cl)cc23)c1C: label 0

In: Is IC50 strictly under 800 nM for the entry `CCn1ncc(CN(C)C(=O)c2nc(-c3cc(NC)c4cn[nH]c4c3)nc3ccc(Cl)cc23)c1C` ?
Out: label 1
